System: 935938-334-R-J1-PDC spheroids with HUVEC/MSC, viability
Assay: Anticancer human tumor 935938-334-R-J1-PDC patient-derived small intestine adenocarcinoma cell line growth inhibition [PI3K]
Conditions: second compound 3.16 µM; first compound 0.00316 µM; stronger effect = lower value
Lab note: anything with viability, T/C below 50% is marked Criterion met; values at 50% or higher are marked Criterion not met.

Answered examples (4):
CCN1CCN(Cc2ccc(Nc3ncc(F)c(-c4cc(F)c5nc(C)n(C(C)C)c5c4)n3)nc2)CC1 + Cc1nc(NC(=O)N2CCCC2C(N)=O)sc1-c1ccnc(C(C)(C)C(F)(F)F)c1 | Criterion met
CC(=O)c1c(C)c2cnc(Nc3ccc(N4CCNCC4)cn3)nc2n(C2CCCC2)c1=O + Cc1nc(NC(=O)N2CCCC2C(N)=O)sc1-c1ccnc(C(C)(C)C(F)(F)F)c1 | Criterion met
CCN1CCN(Cc2ccc(Nc3ncc(F)c(-c4cc(F)c5nc(C)n(C(C)C)c5c4)n3)nc2)CC1 + CC(Nc1ncnc2nc[nH]c12)c1cc2cccc(Cl)c2c(=O)n1-c1ccccc1 | Criterion not met
Cn1ncnc1[C@H]1c2n[nH]c(=O)c3cc(F)cc(c23)N[C@@H]1c1ccc(F)cc1 + CC(Nc1ncnc2nc[nH]c12)c1cc2cccc(Cl)c2c(=O)n1-c1ccccc1 | Criterion not met

Req: Problem: For the compound CC(=O)c1c(C)c2cnc(Nc3ccc(N4CCNCC4)cn3)nc2n(C2CCCC2)c1=O + CC(Nc1ncnc2nc[nH]c12)c1cc2cccc(Cl)c2c(=O)n1-c1ccccc1 , is viability, T/C under 50%?
Resp: Criterion not met

Req: Problem: For the compound Cn1ncnc1[C@H]1c2n[nH]c(=O)c3cc(F)cc(c23)N[C@@H]1c1ccc(F)cc1 + Cc1nc(NC(=O)N2CCCC2C(N)=O)sc1-c1ccnc(C(C)(C)C(F)(F)F)c1 , is viability, T/C under 50%?
Resp: Criterion met

Req: Problem: For the compound CC(C)n1nc(-c2ccc3oc(N)nc3c2)c2c(N)ncnc21 + Cc1nc(NC(=O)N2CCCC2C(N)=O)sc1-c1ccnc(C(C)(C)C(F)(F)F)c1 , is viability, T/C under 50%?
Resp: Criterion met

Req: Problem: For the compound CC(C)n1nc(-c2ccc3oc(N)nc3c2)c2c(N)ncnc21 + CC(Nc1ncnc2nc[nH]c12)c1cc2cccc(Cl)c2c(=O)n1-c1ccccc1 , is viability, T/C under 50%?
Resp: Criterion not met

* * *

Tested on: 935938-334-R-J1-PDC spheroids with HUVEC/MSC, viability
Experiment: Anticancer human tumor 935938-334-R-J1-PDC cell line growth inhibition [PI3K];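 note: compound exposure lasted seven days before viability was read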;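 for viability, T/C: percent of vehicle DMSO treated spheroid viability so 100% = untreated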
Conditions: second compound 1 µM; first compound 0.03 µM; stronger effect = lower value
Provide the recorded viability, T/C for the entries that follow.
Give bare numbers, in %.

The cases that follow already have their viability, T/C on record.
Cn1cnc2c(F)c(Nc3ccc(Br)cc3Cl)c(C(=O)NOCCO)cc21 + CC(Nc1ncnc2nc[nH]c12)c1cc2cccc(Cl)c2c(=O)n1-c1ccccc1 | 65.6
Cn1cnc2c(F)c(Nc3ccc(Br)cc3Cl)c(C(=O)NOCCO)cc21 + CC(Nc1ccc2c(c1)OCCn1cc(N3C(=O)OCC3C(F)F)nc1-2)C(N)=O | 31.3
Cn1cnc2c(F)c(Nc3ccc(Br)cc3Cl)c(C(=O)NOCCO)cc21 + COc1c(OCCCN2CCOCC2)ccc2c3n(c(=NC(=O)c4cnc(N)nc4)nc12)CCN3 | 24.4

Okay, now this molecule:
Req: Any idea what viability, T/C was measured for Cn1cnc2c(F)c(Nc3ccc(Br)cc3Cl)c(C(=O)NOCCO)cc21 + Cc1nc(NC(=O)N2CCCC2C(N)=O)sc1-c1ccnc(C(C)(C)C(F)(F)F)c1 ?
Resp: 37

* * *

System: 935938-334-R-J1-PDC spheroids with HUVEC/MSC, viability
Assay: Anticancer human tumor 935938-334-R-J1-PDC cell line growth inhibition [PI3K];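 note: compound exposure lasted seven days before viability was read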
Details: curve of first compound; second compound 0.1 µM
Provide the recorded log10(IC50) for the entries that follow.
All values: log10 IC50 [nM].

The cases that follow already have their log10(IC50) on record.
C=CC(=O)N1CCN(c2nc(=O)n(-c3c(C)ccnc3C(C)C)c3nc(-c4c(O)cccc4F)c(F)cc23)C(C)C1 (stereo unspecified) + COc1c(OCCCN2CCOCC2)ccc2c3n(c(=NC(=O)c4cnc(N)nc4)nc12)CCN3 | 3.38
CC(=O)c1c(C)c2cnc(Nc3ccc(N4CCNCC4)cn3)nc2n(C2CCCC2)c1=O + COc1c(OCCCN2CCOCC2)ccc2c3n(c(=NC(=O)c4cnc(N)nc4)nc12)CCN3 | -0.21
CCCS(=O)(=O)Nc1ccc(F)c(C(=O)c2c[nH]c3ncc(-c4ccc(Cl)cc4)cc23)c1F + Cc1nc(NC(=O)N2CCCC2C(N)=O)sc1-c1ccnc(C(C)(C)C(F)(F)F)c1 | 3.81
C[C@@H](NC(=O)c1ncnc(N)c1Cl)c1ncc(C(=O)Nc2cc(C(F)(F)F)c(Cl)cn2)s1 + COc1c(OCCCN2CCOCC2)ccc2c3n(c(=NC(=O)c4cnc(N)nc4)nc12)CCN3 | 3.84
Cn1ncc(Cl)c1-c1cc(C(=O)NC(CN)Cc2cccc(F)c2)sc1Cl (stereo unspecified) + CC(Nc1ccc2c(c1)OCCn1cc(N3C(=O)OCC3C(F)F)nc1-2)C(N)=O | 2.88

List log10(IC50) for every entry below, keeping the order given.
1. Cn1cnc2c(F)c(Nc3ccc(Br)cc3Cl)c(C(=O)NOCCO)cc21 + CC(Nc1ncnc2nc[nH]c12)c1cc2cccc(Cl)c2c(=O)n1-c1ccccc1
2. CCCS(=O)(=O)Nc1ccc(F)c(C(=O)c2c[nH]c3ncc(-c4ccc(Cl)cc4)cc23)c1F + COc1c(OCCCN2CCOCC2)ccc2c3n(c(=NC(=O)c4cnc(N)nc4)nc12)CCN3

Resp:
[2.04, 3.73]

* * *

Provide the recorded viability, T/C for the entries that follow.
Tested on: 935938-334-R-J1-PDC spheroids with HUVEC/MSC, viability
Test: Anticancer human tumor 935938-334-R-J1-PDC cell line growth inhibition [PI3K];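 note: compound exposure lasted seven days before viability was read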;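 for viability, T/C: percent of vehicle DMSO treated spheroid viability so 100% = untreated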
Settings: second compound 0.1 µM; first compound 0.1 µM; stronger effect = lower value
Answers are plain numbers, in %.

CCN1CCN(Cc2ccc(Nc3ncc(F)c(-c4cc(F)c5nc(C)n(C(C)C)c5c4)n3)nc2)CC1 + COc1c(OCCCN2CCOCC2)ccc2c3n(c(=NC(=O)c4cnc(N)nc4)nc12)CCN3 | 37.7
CC(=O)c1c(C)c2cnc(Nc3ccc(N4CCNCC4)cn3)nc2n(C2CCCC2)c1=O + COc1c(OCCCN2CCOCC2)ccc2c3n(c(=NC(=O)c4cnc(N)nc4)nc12)CCN3 | 35.6
C[C@@H](NC(=O)c1ncnc(N)c1Cl)c1ncc(C(=O)Nc2cc(C(F)(F)F)c(Cl)cn2)s1 + COc1c(OCCCN2CCOCC2)ccc2c3n(c(=NC(=O)c4cnc(N)nc4)nc12)CCN3 | 65.7
CC(Cn1ccc(-c2ccc(C#N)c(Cl)c2)n1)NC(=O)c1cc(C(C)O)[nH]n1 (centres undefined) + Cc1nc(NC(=O)N2CCCC2C(N)=O)sc1-c1ccnc(C(C)(C)C(F)(F)F)c1 | 72.3
CNC(=O)c1ccc(N2C(=S)N(c3ccc(C#N)c(C(F)(F)F)c3)C(=O)C2(C)C)cc1F + COc1c(OCCCN2CCOCC2)ccc2c3n(c(=NC(=O)c4cnc(N)nc4)nc12)CCN3 | 42.6

List viability, T/C for every entry below, keeping the order given.
1. C[C@@H](NC(=O)c1ncnc(N)c1Cl)c1ncc(C(=O)Nc2cc(C(F)(F)F)c(Cl)cn2)s1 + Cc1nc(NC(=O)N2CCCC2C(N)=O)sc1-c1ccnc(C(C)(C)C(F)(F)F)c1
2. CCN1CCN(Cc2ccc(Nc3ncc(F)c(-c4cc(F)c5nc(C)n(C(C)C)c5c4)n3)nc2)CC1 + CC(Nc1ncnc2nc[nH]c12)c1cc2cccc(Cl)c2c(=O)n1-c1ccccc1
3. CC(Cn1ccc(-c2ccc(C#N)c(Cl)c2)n1)NC(=O)c1cc(C(C)O)[nH]n1 (centres undefined) + CC(Nc1ncnc2nc[nH]c12)c1cc2cccc(Cl)c2c(=O)n1-c1ccccc1
4. Cn1ncc(Cl)c1-c1cc(C(=O)NC(CN)Cc2cccc(F)c2)sc1Cl (centres undefined) + CC(Nc1ccc2c(c1)OCCn1cc(N3C(=O)OCC3C(F)F)nc1-2)C(N)=O
5. Cn1ncnc1[C@H]1c2n[nH]c(=O)c3cc(F)cc(c23)N[C@@H]1c1ccc(F)cc1 + Cc1nc(NC(=O)N2CCCC2C(N)=O)sc1-c1ccnc(C(C)(C)C(F)(F)F)c1
6. CCCS(=O)(=O)Nc1ccc(F)c(C(=O)c2c[nH]c3ncc(-c4ccc(Cl)cc4)cc23)c1F + Cc1nc(NC(=O)N2CCCC2C(N)=O)sc1-c1ccnc(C(C)(C)C(F)(F)F)c1
7. CC(C)n1nc(-c2ccc3oc(N)nc3c2)c2c(N)ncnc21 + CC(Nc1ccc2c(c1)OCCn1cc(N3C(=O)OCC3C(F)F)nc1-2)C(N)=O
8. CCCS(=O)(=O)Nc1ccc(F)c(C(=O)c2c[nH]c3ncc(-c4ccc(Cl)cc4)cc23)c1F + CC(Nc1ncnc2nc[nH]c12)c1cc2cccc(Cl)c2c(=O)n1-c1ccccc1

Resp:
108
62.9
85.2
74.7
83.5
75.4
32.6
98.7

Req: Any idea what viability, T/C was measured for Cn1ncnc1[C@H]1c2n[nH]c(=O)c3cc(F)cc(c23)N[C@@H]1c1ccc(F)cc1 + CC(Nc1ccc2c(c1)OCCn1cc(N3C(=O)OCC3C(F)F)nc1-2)C(N)=O ?
Resp: 78.2

Data provenance: PubChem BioAssay AID1963966
